tested on: TMV (tobacco mosaic virus) replication in intact N. glutinosa plants; test: Antiviral activity in N. glutinosa intact plants, infectivity test (local lesions); format: in vivo, tobacco mosaic virus; Nicotiana glutinosa; settings: 1000 nM (10^-6 M), non-treated half-leaf
MEASUREMENT_TYPE: percent protection as compared to control TMV infected leaves (%)

COMPOUND	RECORDED_RESULT
Nc1ncnc2c1ncn2[C@@H]1O[C@H](COP(=O)(O)OP(=O)(O)OC[C@H]2O[C@@H](n3ccc(=O)[nH]c3=O)[C@H](O)[C@@H]2O)[C@@H](O)[C@H]1O	21.0
Nc1ncnc2c1ncn2[C@@H]1O[C@H](COP(=O)(O)OP(=O)(O)OP(=O)(O)OC[C@H]2O[C@@H](n3cnc4c(N)ncnc43)[C@H](O)[C@@H]2O)[C@@H](O)[C@H]1O [A5'ppp5'A, diadenosine 5',5"'-p^1,p3 -triphosphate]	100
Nc1ncnc2c1ncn2[C@@H]1O[C@H](COP(=O)(O)OP(=O)(O)OC[C@H]2O[C@@H](n3cnc4c(N)ncnc43)[C@H](O)[C@@H]2O)[C@@H](O)[C@H]1O [A5'pp5'A, diadenosine 5',5'"-p^1,p^2 -diphosphate]	100
Nc1ccn([C@@H]2O[C@H](COP(=O)(O)OP(=O)(O)OC[C@H]3O[C@@H](n4cnc5c(N)ncnc54)[C@H](O)[C@@H]3O)[C@@H](O)[C@H]2O)c(=O)n1	32.9
Nc1nc2c(ncn2[C@@H]2O[C@H](COP(=O)(O)OP(=O)(O)OC[C@H]3O[C@@H](n4cnc5c(N)ncnc54)[C@H](O)[C@@H]3O)[C@@H](O)[C@H]2O)c(=O)[nH]1	100
